Where these numbers come from: patent US20230263822A1

Listed substances paired with reported fibrinogen levels
- Test system: fibrinogen
- test_method_notes: Fibrinogen assay (Example 45)
- Assay type: in vivo, cynomolgus monkeys
- test_parameters: plasma; day 43; escalating dose regimen
Write down the numeric answer in mg/dL and omit the unit.

substance	system	metric_name	val
ISIS 416850: MOE gapmer, nucleobases 1275 to 1318 of SEQ ID NO: 1 (Table 8) (antisense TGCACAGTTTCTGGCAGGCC; MOE gapmer, wing and gap sizes not given here)	fibrinogen	fibrinogen levels	219

As a next step, examine the substance that follows.
Challenge: Given the substance ISIS 416838: MOE gapmer, nucleobases 1018 to 1042 of SEQ ID NO: 1 (Table 6) (antisense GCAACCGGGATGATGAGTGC; MOE gapmer, wing and gap sizes not given here) , what is its reported fibrinogen levels?
Response given: 186
